Target: Poly [ADP-ribose] polymerase 1 (Homo sapiens)
Sequence (P09874 whole entry): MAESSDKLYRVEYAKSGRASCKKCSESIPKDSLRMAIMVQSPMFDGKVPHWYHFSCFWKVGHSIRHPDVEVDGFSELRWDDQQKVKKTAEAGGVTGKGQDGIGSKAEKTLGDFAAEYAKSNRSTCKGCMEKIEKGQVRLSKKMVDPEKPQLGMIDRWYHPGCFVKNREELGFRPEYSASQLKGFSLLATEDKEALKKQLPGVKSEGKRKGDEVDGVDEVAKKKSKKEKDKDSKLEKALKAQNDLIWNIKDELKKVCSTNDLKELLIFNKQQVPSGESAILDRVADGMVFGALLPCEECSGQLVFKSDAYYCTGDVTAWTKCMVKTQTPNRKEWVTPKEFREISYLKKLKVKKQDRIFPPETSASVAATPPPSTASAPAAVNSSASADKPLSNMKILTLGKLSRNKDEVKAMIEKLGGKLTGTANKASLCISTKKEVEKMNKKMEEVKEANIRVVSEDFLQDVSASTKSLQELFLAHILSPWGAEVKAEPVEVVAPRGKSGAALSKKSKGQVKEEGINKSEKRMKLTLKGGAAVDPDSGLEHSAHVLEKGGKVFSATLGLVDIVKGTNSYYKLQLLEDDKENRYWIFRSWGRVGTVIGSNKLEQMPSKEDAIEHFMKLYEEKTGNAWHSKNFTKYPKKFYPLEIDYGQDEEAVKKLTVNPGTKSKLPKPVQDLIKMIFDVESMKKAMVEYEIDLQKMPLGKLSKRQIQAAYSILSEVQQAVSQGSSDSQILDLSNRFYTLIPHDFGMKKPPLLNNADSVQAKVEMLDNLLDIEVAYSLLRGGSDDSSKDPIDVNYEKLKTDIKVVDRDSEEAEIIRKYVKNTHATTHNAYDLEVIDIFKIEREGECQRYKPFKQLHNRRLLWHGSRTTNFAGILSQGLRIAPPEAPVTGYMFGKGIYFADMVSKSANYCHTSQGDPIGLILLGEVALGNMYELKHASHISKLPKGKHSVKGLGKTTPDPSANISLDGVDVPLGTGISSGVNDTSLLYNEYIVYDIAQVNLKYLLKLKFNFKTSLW
Experiment: Displacement of [125I]KX1 from PARP1 in human OVCAR-8 cells incubated for 1 hr by wizard gamma counter analysis
Readout Type: IC50 (µM)
Unit µM implied. Number only.

Recorded IC50 (molecule COC1CC(NC(=O)c2cc(Cc3n[nH]c(=O)c4ccccc34)ccc2F)C1 (stereo unspecified) ): 0.044
